The measurements presented in this section are drawn from paper PMC6171324.

assay: CD45 staining 7 days post-MI; settings: glycan lost; control: hFSTL1 modRNA
READOUT_LABEL: other: leukocyte infiltration in heart

>>> reported_value("human FSTL 1 (hFSTL1): Mut-(1–3) (protein) parent chain: MWKRWLALALALVAVAWVRAEEELRSKSKICANVFCGAGRECAVTEKGEPTCLCIEQCKPHKRPVCGSNGKTYLNHCELHRDACLTGSKIQVDYDGHCKEKKSVSPSASPVVCYQSNRDELRRRIIQWLEAEIIPDGWFSKGSNYSEILDKYFKNFDNGDSRLDSSEFLKFVEQNETAINITTYPDQENNKLLRGLCVDALIELSDENADWKLSFQEFLKCLNPSFNPPEKKCALEDETYADGAETEVDCNRCVCACGNWVCTAMTCDGKNQKGAQTQTEEEMTRYVQELQKHQETAEKTKRVSTKEI")
"no change"
>>> reported_value("human FSTL 1 (hFSTL1): N180Q (Mut-1) (protein) parent chain: MWKRWLALALALVAVAWVRAEEELRSKSKICANVFCGAGRECAVTEKGEPTCLCIEQCKPHKRPVCGSNGKTYLNHCELHRDACLTGSKIQVDYDGHCKEKKSVSPSASPVVCYQSNRDELRRRIIQWLEAEIIPDGWFSKGSNYSEILDKYFKNFDNGDSRLDSSEFLKFVEQNETAINITTYPDQENNKLLRGLCVDALIELSDENADWKLSFQEFLKCLNPSFNPPEKKCALEDETYADGAETEVDCNRCVCACGNWVCTAMTCDGKNQKGAQTQTEEEMTRYVQELQKHQETAEKTKRVSTKEI")
"no change"
>>> reported_value("human FSTL 1 (hFSTL1): N144Q (Mut-3) (protein) parent chain: MWKRWLALALALVAVAWVRAEEELRSKSKICANVFCGAGRECAVTEKGEPTCLCIEQCKPHKRPVCGSNGKTYLNHCELHRDACLTGSKIQVDYDGHCKEKKSVSPSASPVVCYQSNRDELRRRIIQWLEAEIIPDGWFSKGSNYSEILDKYFKNFDNGDSRLDSSEFLKFVEQNETAINITTYPDQENNKLLRGLCVDALIELSDENADWKLSFQEFLKCLNPSFNPPEKKCALEDETYADGAETEVDCNRCVCACGNWVCTAMTCDGKNQKGAQTQTEEEMTRYVQELQKHQETAEKTKRVSTKEI")
"no change"
>>> reported_value("human FSTL 1 (hFSTL1): N175Q (Mut-2) (protein) parent chain: MWKRWLALALALVAVAWVRAEEELRSKSKICANVFCGAGRECAVTEKGEPTCLCIEQCKPHKRPVCGSNGKTYLNHCELHRDACLTGSKIQVDYDGHCKEKKSVSPSASPVVCYQSNRDELRRRIIQWLEAEIIPDGWFSKGSNYSEILDKYFKNFDNGDSRLDSSEFLKFVEQNETAINITTYPDQENNKLLRGLCVDALIELSDENADWKLSFQEFLKCLNPSFNPPEKKCALEDETYADGAETEVDCNRCVCACGNWVCTAMTCDGKNQKGAQTQTEEEMTRYVQELQKHQETAEKTKRVSTKEI")
"no change"
